- System tested: Rat α3β2 nAChR (Rattus norvegicus, UniProt P04757+P12390)
- Sequence (P04757 26-499 limits assumed): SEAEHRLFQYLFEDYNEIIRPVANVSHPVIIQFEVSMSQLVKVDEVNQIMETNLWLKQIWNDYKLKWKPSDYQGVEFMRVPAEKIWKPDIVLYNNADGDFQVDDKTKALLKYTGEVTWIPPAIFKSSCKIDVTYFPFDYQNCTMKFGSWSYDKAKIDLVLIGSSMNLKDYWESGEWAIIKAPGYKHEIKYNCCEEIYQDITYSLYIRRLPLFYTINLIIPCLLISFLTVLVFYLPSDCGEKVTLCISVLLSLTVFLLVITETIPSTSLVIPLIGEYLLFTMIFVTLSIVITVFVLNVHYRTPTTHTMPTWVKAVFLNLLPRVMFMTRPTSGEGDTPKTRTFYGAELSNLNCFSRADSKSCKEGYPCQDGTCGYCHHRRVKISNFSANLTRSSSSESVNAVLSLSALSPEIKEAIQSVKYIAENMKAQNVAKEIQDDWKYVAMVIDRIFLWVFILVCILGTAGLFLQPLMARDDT
- Sequence (P12390 25-500 limits assumed): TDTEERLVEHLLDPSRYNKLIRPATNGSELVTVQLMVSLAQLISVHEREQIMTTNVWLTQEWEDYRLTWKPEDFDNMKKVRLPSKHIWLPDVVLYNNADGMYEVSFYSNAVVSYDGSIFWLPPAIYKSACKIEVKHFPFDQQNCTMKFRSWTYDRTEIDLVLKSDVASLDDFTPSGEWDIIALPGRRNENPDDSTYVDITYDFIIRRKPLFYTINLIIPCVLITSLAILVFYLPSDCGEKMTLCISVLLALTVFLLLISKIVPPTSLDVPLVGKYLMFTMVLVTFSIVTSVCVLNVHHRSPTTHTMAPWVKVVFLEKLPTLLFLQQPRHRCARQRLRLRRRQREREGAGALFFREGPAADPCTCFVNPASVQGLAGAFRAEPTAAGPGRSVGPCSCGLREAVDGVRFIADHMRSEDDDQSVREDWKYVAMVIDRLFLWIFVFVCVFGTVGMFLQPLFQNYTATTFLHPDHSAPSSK
- Protocol notes: cell-based
pIC50: −log10 of the molar value. Where a SMILES comes first, the peptide text is derived from it. Bridges are numbered along the chain shown (N, C = ends).
Assign class by pIC50: not lower than 7 means Condition met; lower than 7 means Condition not met.

| Molecule | System tested | Class |
| --- | --- | --- |
| CC(C)[C@@H]1NC(=O)[C@@H]2CCCN2C(=O)[C@H](CC(N)=O)NC(=O)[C@H](CO)NC(=O)[C@@H]2CSSC[C@@H](C(N)=O)NC(=O)[C@H](C)NC(=O)[C@H](CC(N)=O)NC(=O)[C@H](CO)NC(=O)[C@H](Cc3c[nH]cn3)NC(=O)[C@H](CCC(=O)O)NC(=O)[C@H](C)NC(=O)[C@H](Cc3c[nH]cn3)NC(=O)[C@H](CSSC[C@H](NC(=O)CN)C(=O)N2)NC1=O [MII[L10A; L15A]] (H-GCCSNPVCHAEHSNAC-NH2; disulfide 2-8, 3-16) | Rat α3β2 nAChR (Rattus norvegicus, UniProt P04757+P12390) | Condition met |
| CC(C)C[C@@H]1NC(=O)[C@H](C)NC(=O)[C@@H]2CSSC[C@H](NC(=O)CN)C(=O)N[C@@H](CSSC[C@@H](C(N)=O)NC(=O)[C@H](CC(C)C)NC(=O)[C@H](CC(N)=O)NC(=O)[C@H](CO)NC(=O)[C@H](Cc3c[nH]cn3)NC(=O)[C@H](CCC(=O)O)NC1=O)C(=O)N[C@@H](CO)C(=O)N[C@@H](CC(N)=O)C(=O)N1CCC[C@H]1C(=O)N[C@@H](C(C)C)C(=O)N2 [MII[H9A]] (H-GCCSNPVCALEHSNLC-NH2; disulfide 2-8, 3-16) | Rat α3β2 nAChR (Rattus norvegicus, UniProt P04757+P12390) | Condition met |
| CC(C)C[C@@H]1NC(=O)[C@H](Cc2c[nH]cn2)NC(=O)[C@@H]2CSSC[C@H](NC(=O)CN)C(=O)N[C@@H](CSSC[C@@H](C(N)=O)NC(=O)[C@H](C)NC(=O)[C@H](CC(N)=O)NC(=O)[C@H](CO)NC(=O)[C@H](Cc3c[nH]cn3)NC(=O)[C@H](CCC(=O)O)NC1=O)C(=O)N[C@@H](CO)C(=O)N[C@@H](CC(N)=O)C(=O)N1CCC[C@H]1C(=O)N[C@@H](C(C)C)C(=O)N2 [MII[L15A]] (H-GCCSNPVCHLEHSNAC-NH2; disulfide 2-8, 3-16) | Rat α3β2 nAChR (Rattus norvegicus, UniProt P04757+P12390) | Condition met |
| CC(C)C[C@@H]1NC(=O)[C@H](Cc2c[nH]cn2)NC(=O)[C@@H]2CSSC[C@H](NC(=O)CN)C(=O)N[C@@H](CSSC[C@@H](C(N)=O)NC(=O)[C@H](CC(C)C)NC(=O)[C@H](CC(N)=O)NC(=O)[C@H](CO)NC(=O)[C@H](Cc3c[nH]cn3)NC(=O)[C@H](C)NC1=O)C(=O)N[C@@H](CO)C(=O)N[C@@H](CC(N)=O)C(=O)N1CCC[C@H]1C(=O)N[C@@H](C(C)C)C(=O)N2 [MII[E11A]] (H-GCCSNPVCHLAHSNLC-NH2; disulfide 2-8, 3-16) | Rat α3β2 nAChR (Rattus norvegicus, UniProt P04757+P12390) | Condition met |
| CC(C)C[C@@H]1NC(=O)[C@H](CC(N)=O)NC(=O)[C@H](C)NC(=O)[C@H](Cc2c[nH]cn2)NC(=O)[C@H](CCC(=O)O)NC(=O)[C@H](CC(C)C)NC(=O)[C@H](Cc2c[nH]cn2)NC(=O)[C@@H]2CSSC[C@H](NC(=O)CN)C(=O)N[C@@H](CSSC[C@@H](C(N)=O)NC1=O)C(=O)N[C@@H](CO)C(=O)N[C@@H](CC(N)=O)C(=O)N1CCC[C@H]1C(=O)N[C@@H](C(C)C)C(=O)N2 [MII[S13A]] (H-GCCSNPVCHLEHANLC-NH2; disulfide 2-8, 3-16) | Rat α3β2 nAChR (Rattus norvegicus, UniProt P04757+P12390) | Condition met |

Then there is this molecule:
Please indicate if the recorded pIC50 for CC(C)C[C@@H]1NC(=O)[C@H](C)NC(=O)[C@@H]2CSSC[C@H](NC(=O)CN)C(=O)N[C@@H](CSSC[C@@H](C(N)=O)NC(=O)[C@H](CC(C)C)NC(=O)[C@H](CC(N)=O)NC(=O)[C@H](CO)NC(=O)[C@H](Cc3c[nH]cn3)NC(=O)[C@H](CCC(=O)O)NC1=O)C(=O)N[C@@H](C)C(=O)N[C@@H](CC(N)=O)C(=O)N1CCC[C@H]1C(=O)N[C@@H](C(C)C)C(=O)N2 [MII[S4A; H9A]] (H-GCCANPVCALEHSNLC-NH2; disulfide 2-8, 3-16) meets or exceeds 7. Condition not met
